Assay Overview: Cytotoxicity against Wistar rat bone marrow-derived MSC assessed as inhibition of cell viability at 10 uM after 72 hrs by MTS assay relative to control
Format: toxicity, cell-based
Cond: bone marrow-derived mesenchymal stem cells (MSC), read-out: INH
Parameter Measured: cytotoxicity at 72 h, 10 µM (%)
Response body: numeric value in %, unit text excluded.

[Q] What value of cytotoxicity at 72 h, 10 µM has been recorded for this entry: COc1ccc(-c2coc3c(C=O)c(O)ccc3c2=O)cc1
[A] 15.5

All figures here come from ChEMBL document CHEMBL5584295.
